Molecular target: PfHSP90 (Plasmodium falciparum)
Sequence (Q8IC05 entry or part of it): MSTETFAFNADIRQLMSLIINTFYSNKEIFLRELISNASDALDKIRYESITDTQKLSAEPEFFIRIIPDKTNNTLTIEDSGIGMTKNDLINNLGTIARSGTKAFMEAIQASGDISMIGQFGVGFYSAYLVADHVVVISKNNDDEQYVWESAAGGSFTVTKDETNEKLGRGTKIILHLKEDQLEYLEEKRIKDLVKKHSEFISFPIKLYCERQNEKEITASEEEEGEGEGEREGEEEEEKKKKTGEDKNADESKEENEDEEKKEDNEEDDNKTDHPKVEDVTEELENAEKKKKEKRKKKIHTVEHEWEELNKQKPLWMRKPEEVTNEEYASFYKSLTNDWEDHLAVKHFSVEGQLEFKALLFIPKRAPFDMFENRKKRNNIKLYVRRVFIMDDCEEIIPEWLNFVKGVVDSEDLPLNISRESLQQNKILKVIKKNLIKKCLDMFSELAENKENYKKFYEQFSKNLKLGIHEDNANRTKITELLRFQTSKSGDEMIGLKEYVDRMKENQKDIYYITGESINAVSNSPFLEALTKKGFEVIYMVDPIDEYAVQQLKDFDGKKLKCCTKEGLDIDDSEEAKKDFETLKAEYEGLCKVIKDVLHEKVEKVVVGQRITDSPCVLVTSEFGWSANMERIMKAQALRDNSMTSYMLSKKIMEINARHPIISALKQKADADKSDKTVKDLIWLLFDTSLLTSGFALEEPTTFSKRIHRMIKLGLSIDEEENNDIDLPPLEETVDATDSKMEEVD
Experiment: Tryptophan fluorescence binding, full-length PfHSP90
pKd: −log10 of the molar value.
EXPERIMENTAL READOUT: pKd

In [3]: df
Out[3]:
                                smiles_code  reported
0  CC(C)CCNc1ccc(-c2cnc3ccc(NC4CCN(C)CC4)nn23)cn1      5.21

###

Form field: EC5048/EC5096 ratio (one value per entry).
Test system: P. falciparum 3D7
Test: SYBR green I growth assay, wild-type parasites
Assay type: cell-based, Plasmodium falciparum
Settings: Table 1
EXPERIMENTAL READOUT: EC5048/EC5096 ratio

>>> df
                                   molecule  experimental_readout  reported
0  NC1CCC(Nc2ccc3ncc(-c4cnc(Nc5ccccn5)c(F)c4)n3n2)CC1 (stereo not drawn)   EC5048/EC5096 ratio       2.1
1  CC(C)CCNc1ncc(-c2cnc3ccc(NC4CCN(C)C4)nn23)cn1 (stereo not drawn)   EC5048/EC5096 ratio       7.0
2  Fc1cccnc1Nc1ncc(-c2cnc3ccc(NC4CCC(N5CCNCC5)CC4)nn23)cn1 (stereo not drawn)   EC5048/EC5096 ratio       4.4
3  CC(C)CCNc1ccc(-c2cnc3ccc(NC4CCN(C)C4)nn23)cn1 (stereo not drawn)   EC5048/EC5096 ratio       1.8

###

Target: PfPKG (Plasmodium falciparum, UniProt Q8I719)
Construct: plasmids (pTrcHisC) encoding full-length PfPKG and PfPKG T618Q with N-terminal His tags; His tag (N); made in house; host or cells: E. coli Rosetta2(DE3)
Experiment: Microfluidic fluorescent shift assay of cGMP-dependent protein kinase activity
Format: biochemical
Conditions: Table S2; read-out: Enzyme inhibition IC50, PKG
Each record gets a class by IC50: small value = under 50 nM, mid value = from 50 nM up to 200 nM, large value = 200 nM and over

                                   molecule          cat
0  CN1CCC(Nc2ccc3ncc(-c4cnc(Nc5cnccn5)c(F)c4)n3n2)CC1  large value
1  CC(C)CCNc1ncc(-c2cnc3ccc(NC4CCNCC4)nn23)cn1    mid value
2  Fc1cc(-c2cnc3ccc(NC4CCNCC4)nn23)cnc1Nc1ccccn1    mid value
3  Fc1cccnc1Nc1ccc(-c2cnc3ccc(NC4CCNCC4)nn23)cc1    mid value
4  NC1CCC(Nc2ccc3ncc(-c4ccc(Nc5ncccc5F)cc4)n3n2)CC1 (stereo not drawn)  small value
5  Fc1cc(-c2cnc3ccc(NC4CCNCC4)nn23)ccc1Nc1ccccn1    mid value
6  Fc1cccnc1Nc1ncc(-c2cnc3ccc(NC4CCNCC4)nn23)cn1  small value
7  CN1CCC(Nc2ccc3ncc(-c4ccc(Nc5ncccc5F)cc4)n3n2)CC1  large value
8  Fc1cc(-c2cnc3ccc(NC4CCNCC4)nn23)cnc1Nc1cnccn1    mid value

###

# maps each entry to its pIC50
Molecular target: PfPKG T618Q (Plasmodium falciparum, UniProt Q8I719, T618Q)
Construct: plasmids (pTrcHisC) encoding full-length PfPKG and PfPKG T618Q with N-terminal His tags; His tag (N); made in house; host or cells: E. coli Rosetta2(DE3)
Sequence (Q8I719 whole entry T618Q): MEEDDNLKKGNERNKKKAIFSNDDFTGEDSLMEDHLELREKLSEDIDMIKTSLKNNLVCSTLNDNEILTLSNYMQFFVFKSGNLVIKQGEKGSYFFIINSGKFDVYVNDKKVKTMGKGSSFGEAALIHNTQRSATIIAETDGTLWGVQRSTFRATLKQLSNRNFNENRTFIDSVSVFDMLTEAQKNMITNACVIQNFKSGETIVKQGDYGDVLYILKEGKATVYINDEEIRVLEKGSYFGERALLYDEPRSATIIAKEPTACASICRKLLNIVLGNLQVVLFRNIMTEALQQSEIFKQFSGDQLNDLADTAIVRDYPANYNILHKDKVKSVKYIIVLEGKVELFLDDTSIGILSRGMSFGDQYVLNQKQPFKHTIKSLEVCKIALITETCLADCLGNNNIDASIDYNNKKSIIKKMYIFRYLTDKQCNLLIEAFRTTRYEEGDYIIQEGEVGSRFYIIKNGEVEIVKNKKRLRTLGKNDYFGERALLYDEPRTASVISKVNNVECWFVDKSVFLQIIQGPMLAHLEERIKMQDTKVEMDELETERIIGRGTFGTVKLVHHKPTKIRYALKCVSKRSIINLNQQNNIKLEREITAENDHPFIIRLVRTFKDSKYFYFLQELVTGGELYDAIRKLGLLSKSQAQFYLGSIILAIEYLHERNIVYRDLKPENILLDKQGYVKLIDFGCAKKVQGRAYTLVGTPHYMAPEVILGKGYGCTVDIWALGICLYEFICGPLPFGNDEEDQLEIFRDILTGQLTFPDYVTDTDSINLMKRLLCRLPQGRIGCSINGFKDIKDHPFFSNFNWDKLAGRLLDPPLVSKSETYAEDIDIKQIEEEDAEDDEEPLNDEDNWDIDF
Test: biochemical
Assay type: biochemical
Conditions: Table 2; ATP at Km 90 μM; read-out: Enzyme inhibition IC50, PKG T618Q
pIC50: −log10 of the molar value.
EXPERIMENTAL READOUT: pIC50

>>> print(df.to_string())
                                   compound                             target_system  experimental_readout  reported
0  Fc1cccnc1Nc1ncc(-c2cnc3ccc(NC4CCC(N5CCCC5)CC4)nn23)cn1 (stereo not shown)  PfPKG T618Q (Plasmodium falciparum, UniProt Q8I719, T618Q)                 pIC50      4.59
1  CN1CCC(CNc2ccc3ncc(-c4cnc(Nc5ncccc5F)nc4)n3n2)CC1  PfPKG T618Q (Plasmodium falciparum, UniProt Q8I719, T618Q)                 pIC50      4.36
2  CC(C)CCNc1ccc(-c2cnc3ccc(NC4CCN(C)C4)nn23)cn1 (stereo not shown)  PfPKG T618Q (Plasmodium falciparum, UniProt Q8I719, T618Q)                 pIC50      4.43
3  Fc1cccnc1Nc1ncc(-c2cnc3ccc(NC4CCC(N5CCNCC5)CC4)nn23)cn1 (stereo not shown)  PfPKG T618Q (Plasmodium falciparum, UniProt Q8I719, T618Q)                 pIC50      4.50
